Tested target: Human thrombin (Homo sapiens, UniProt P00734)
Observation type: IC50 (µM)

{"columns": ["Compound", "Tested target", "Endpoint unit", "Recorded value"],
 "data": [
  ["NCCCCC(NC(=O)CN(C(=O)C(N)Cc1ccccc1)C1CCCC1)C(=O)c1nccs1 (centres unmarked) [2(e)]", "Human thrombin (Homo sapiens, UniProt P00734)", "µM", 4.5],
  ["NCCCCC(NC(=O)CN(C(=O)CCc1ccccc1)C1CCCC1)C(=O)C(=O)O (centres unmarked) [4(b)]", "Human thrombin (Homo sapiens, UniProt P00734)", "µM", 4.34]
]}
